Values compiled from ChEMBL document CHEMBL4368930.

MCC at up to 200 µM overview
- EXPERIMENT_SUMMARY: Cytotoxicity against HEL cells assessed as effect on cell morphology at 0.32 to 200 uM by microscopic analysis
- Type: cell-based
- CONDITIONS_USED: human

[
  {
    "QUERY_SMILES": "O=c1c2ncn(CCCCO)c2nc2[nH]c(-c3ccc4c(c3)OCO4)cn12",
    "MCC at up to 200 µM": "> 100 µM"
  },
  {
    "QUERY_SMILES": "O=c1c2ncn(CCC(CO)CO)c2nc2[nH]c(-c3ccc(C(F)(F)F)cc3)cn12",
    "MCC at up to 200 µM": "≥ 100 µM"
  },
  {
    "QUERY_SMILES": "CCOc1ccc(-c2cn3c(=O)c4ncn(CCC(CO)CO)c4nc3[nH]2)cc1",
    "MCC at up to 200 µM": "> 100 µM"
  },
  {
    "QUERY_SMILES": "O=c1c2ncn(CCC(CO)CO)c2nc2[nH]c(-c3ccccc3)cn12",
    "MCC at up to 200 µM": "> 100 µM"
  },
  {
    "QUERY_SMILES": "O=c1c2ncn(CCCCO)c2nc2[nH]c(-c3ccccc3)cn12",
    "MCC at up to 200 µM": "> 100 µM"
  },
  {
    "QUERY_SMILES": "Cc1ccc(-c2cn3c(=O)c4ncn(CCC(CO)CO)c4nc3[nH]2)cc1",
    "MCC at up to 200 µM": "> 100 µM"
  },
  {
    "QUERY_SMILES": "O=c1c2ncn(CCC(CO)CO)c2nc2[nH]c(-c3ccc(F)cc3)cn12",
    "MCC at up to 200 µM": "> 100 µM"
  },
  {
    "QUERY_SMILES": "Nc1nc2c(ncn2COCCO)c(=O)[nH]1",
    "MCC at up to 200 µM": "> 250 µM"
  },
  {
    "QUERY_SMILES": "O=c1[nH]c(=O)n([C@H]2C[C@H](O)[C@@H](CO)O2)cc1/C=C/Br",
    "MCC at up to 200 µM": "> 250 µM"
  },
  {
    "QUERY_SMILES": "Cc1ccc(-c2cn3c(=O)c4ncn(CCCCO)c4nc3[nH]2)cc1",
    "MCC at up to 200 µM": "> 100 µM"
  }
]

Which MCC at up to 200 µM reading was recorded for the molecule O=c1c2ncn(CCCCO)c2nc2[nH]c(-c3cccs3)cn12 ?
> 100 µM

Which MCC at up to 200 µM reading was recorded for the molecule O=c1c2ncn(CCCCO)c2nc2[nH]c(-c3ccc(Cl)cc3)cn12 ?
> 100 µM

Which MCC at up to 200 µM reading was recorded for the molecule O=c1c2ncn(CCCCO)c2nc2[nH]c(-c3ccc(F)cc3)cn12 ?
> 100 µM

* * *

- EXPERIMENT_SUMMARY: Cytotoxicity against HEL cells assessed as effect on cell morphology at 0.32 to 200 uM by microscopic analysis
- Format: cell-based
- CONDITIONS_USED: human
MEASUREMENT_LABEL: MCC at up to 200 µM

Here's what some known entries look like.
[
  {
    "QUERY_SMILES": "O=c1c2ncn(CCC(CO)CO)c2nc2[nH]c(-c3ccc(Oc4ccccc4)cc3)cn12",
    "MEASUREMENT_LABEL": "MCC at up to 200 µM",
    "MEASURED": "> 100 µM"
  },
  {
    "QUERY_SMILES": "COc1ccc(-c2cn3c(=O)c4ncn(CCCCO)c4nc3[nH]2)cc1",
    "MEASUREMENT_LABEL": "MCC at up to 200 µM",
    "MEASURED": "> 100 µM"
  },
  {
    "QUERY_SMILES": "Nc1ccn(C[C@@H](CO)OCP(=O)(O)O)c(=O)n1",
    "MEASUREMENT_LABEL": "MCC at up to 200 µM",
    "MEASURED": "> 250 µM"
  }
]

Which MCC at up to 200 µM reading was recorded for the compound Nc1nc2c(ncn2COC(CO)CO)c(=O)[nH]1 ?
> 250 µM

Which MCC at up to 200 µM reading was recorded for the compound Nc1nc2c(ncn2CCC(CO)CO)c(=O)[nH]1 ?
> 100 µM

Which MCC at up to 200 µM reading was recorded for the compound O=c1c2ncn(CCC(CO)CO)c2nc2[nH]c(-c3ccc4c(c3)OCO4)cn12 ?
≥ 100 µM

Which MCC at up to 200 µM reading was recorded for the compound Nc1nc2c(ncn2CCCCO)c(=O)[nH]1 ?
> 100 µM

Which MCC at up to 200 µM reading was recorded for the compound O=c1c2ncn(CCC(CO)CO)c2nc2[nH]c(-c3ccc(O)cc3)cn12 ?
> 100 µM
